molecular target: Serine/threonine-protein kinase D3 (Homo sapiens) (UniProt O94806); conditions: at 0.1 µM;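 note: each value is the mean of inhibition readings, from a kinase profiling panel run on the GSK PKIS inhibitor collection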
Sequence (O94806 whole entry): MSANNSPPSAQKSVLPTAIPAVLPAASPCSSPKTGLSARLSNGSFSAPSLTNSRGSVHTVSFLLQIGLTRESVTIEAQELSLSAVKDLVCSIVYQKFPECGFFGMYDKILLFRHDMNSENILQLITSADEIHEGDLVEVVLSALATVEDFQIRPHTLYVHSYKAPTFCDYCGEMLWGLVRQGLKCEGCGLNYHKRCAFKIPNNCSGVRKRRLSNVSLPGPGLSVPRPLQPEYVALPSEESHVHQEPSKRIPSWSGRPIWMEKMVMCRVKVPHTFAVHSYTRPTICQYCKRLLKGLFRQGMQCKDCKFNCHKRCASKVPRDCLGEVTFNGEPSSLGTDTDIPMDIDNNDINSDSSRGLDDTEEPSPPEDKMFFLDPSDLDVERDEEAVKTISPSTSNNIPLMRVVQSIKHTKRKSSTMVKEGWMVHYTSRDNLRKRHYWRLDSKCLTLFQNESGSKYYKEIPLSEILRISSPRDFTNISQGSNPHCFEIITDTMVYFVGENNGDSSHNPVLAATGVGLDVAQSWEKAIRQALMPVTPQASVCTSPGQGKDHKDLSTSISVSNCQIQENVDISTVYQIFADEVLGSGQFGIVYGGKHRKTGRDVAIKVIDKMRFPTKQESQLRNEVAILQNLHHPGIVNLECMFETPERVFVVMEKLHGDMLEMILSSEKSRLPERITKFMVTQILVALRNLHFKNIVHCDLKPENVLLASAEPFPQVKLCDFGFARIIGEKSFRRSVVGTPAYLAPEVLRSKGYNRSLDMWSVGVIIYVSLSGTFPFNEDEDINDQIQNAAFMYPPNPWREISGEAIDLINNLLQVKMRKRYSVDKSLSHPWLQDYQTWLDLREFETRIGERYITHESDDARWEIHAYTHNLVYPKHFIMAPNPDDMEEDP
Endpoint: inhibition (%)

>>> value_observed("Nc1nonc1-c1nc2cnccc2n1C1CCCCC1")
-1.73
>>> value_observed("CCn1c(-c2nonc2N)nc2c(C#CC(C)(C)O)nc(O[C@@H](CN)c3ccccc3)cc21")
10.9
>>> value_observed("CCn1c(-c2nonc2N)nc2c(C#CCN)ncc(OCCCN)c21")
-2.29
>>> value_observed("COc1cc2c(cc1Nc1nc(Nc3ccsc3C(N)=O)c3cc[nH]c3n1)N(C(=O)CN(C)C)CCC2")
9.23
>>> value_observed("CCn1c(-c2nonc2N)nc2c(C#CC(C)(C)O)ncc(OCC3CCNCC3)c21")
0.21
>>> value_observed("Fc1ccc(-c2ncn(C3CCNCC3)c2-c2ccnc(Oc3ccccc3)n2)cc1")
-1.84
>>> value_observed("Cc1cc(-c2ccco2)cc(C)c1/C=C/c1cncc(-c2nn[nH]n2)c1")
2.09
>>> value_observed("NS(=O)(=O)c1ccc(-c2ccc3c(NC(=O)C4CC4)n[nH]c3c2)cc1")
1.37

----------
Entries annotated with measured inhibition
biological target: Serine/threonine-protein kinase DCLK2 (Homo sapiens) (UniProt Q8N568); conditions: at 0.1 µM;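 note: reported value is the mean percent inhibition of DCAMKL2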
Sequence (Q8N568 whole entry): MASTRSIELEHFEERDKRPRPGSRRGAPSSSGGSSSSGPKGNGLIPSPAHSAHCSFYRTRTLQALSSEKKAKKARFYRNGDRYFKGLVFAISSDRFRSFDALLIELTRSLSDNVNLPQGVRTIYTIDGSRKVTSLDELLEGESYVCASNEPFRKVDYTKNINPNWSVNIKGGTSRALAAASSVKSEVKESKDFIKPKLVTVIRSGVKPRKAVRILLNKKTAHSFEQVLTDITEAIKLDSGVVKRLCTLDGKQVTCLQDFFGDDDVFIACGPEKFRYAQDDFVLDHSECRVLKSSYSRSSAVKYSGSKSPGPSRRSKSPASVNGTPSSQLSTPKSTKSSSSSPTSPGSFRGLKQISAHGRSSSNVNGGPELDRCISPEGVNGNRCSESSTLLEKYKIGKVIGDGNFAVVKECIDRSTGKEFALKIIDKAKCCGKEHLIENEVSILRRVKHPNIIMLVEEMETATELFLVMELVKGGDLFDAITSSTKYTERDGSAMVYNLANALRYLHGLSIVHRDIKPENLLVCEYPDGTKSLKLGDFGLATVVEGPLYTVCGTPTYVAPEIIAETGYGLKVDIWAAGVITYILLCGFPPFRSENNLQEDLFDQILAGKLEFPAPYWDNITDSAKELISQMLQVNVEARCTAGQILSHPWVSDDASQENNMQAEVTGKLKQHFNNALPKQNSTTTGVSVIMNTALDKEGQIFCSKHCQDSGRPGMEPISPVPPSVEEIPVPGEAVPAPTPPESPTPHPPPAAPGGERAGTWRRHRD
Endpoint: inhibition (%)

>>> value_observed("Cc1cc(-c2ccco2)cc(C)c1/C=C/c1cncc(-c2nn[nH]n2)c1")
-1.22
>>> value_observed("CCn1c(-c2nonc2N)nc2c(C#CC(C)(C)O)ncc(OCC3CCNCC3)c21")
-3.05
>>> value_observed("NC(=O)c1sc(-n2cnc3cc(C(F)(F)F)ccc32)cc1OCc1ccccc1Br")
-1.23
>>> value_observed("COc1cc2c(cc1Nc1nc(Nc3ccsc3C(N)=O)c3cc[nH]c3n1)N(C(=O)CN(C)C)CCC2")
-2.25
>>> value_observed("CCn1c(-c2nonc2N)nc2c(C#CC(C)(C)O)nc(O[C@@H](CN)c3ccccc3)cc21")
6.73
>>> value_observed("NS(=O)(=O)c1ccc(-c2ccc3c(NC(=O)C4CC4)n[nH]c3c2)cc1")
0.37
>>> value_observed("COc1cccc(-n2ncc3c(N/N=C/c4ccncc4)ncnc32)c1")
2.42
>>> value_observed("CCn1c(-c2nonc2N)nc2c(C#CC(C)(C)O)ncc(OC[C@@H]3CCCN3)c21")
-1.55

----------
inhibition values, listed per item
target: Cytoplasmic tyrosine-protein kinase BMX (Homo sapiens) (UniProt P51813); conditions: at 1 µM;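 note: reported value is the mean percent inhibition of BMX, from the GSK PKIS kinase inhibitor screen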
Sequence (P51813 whole entry): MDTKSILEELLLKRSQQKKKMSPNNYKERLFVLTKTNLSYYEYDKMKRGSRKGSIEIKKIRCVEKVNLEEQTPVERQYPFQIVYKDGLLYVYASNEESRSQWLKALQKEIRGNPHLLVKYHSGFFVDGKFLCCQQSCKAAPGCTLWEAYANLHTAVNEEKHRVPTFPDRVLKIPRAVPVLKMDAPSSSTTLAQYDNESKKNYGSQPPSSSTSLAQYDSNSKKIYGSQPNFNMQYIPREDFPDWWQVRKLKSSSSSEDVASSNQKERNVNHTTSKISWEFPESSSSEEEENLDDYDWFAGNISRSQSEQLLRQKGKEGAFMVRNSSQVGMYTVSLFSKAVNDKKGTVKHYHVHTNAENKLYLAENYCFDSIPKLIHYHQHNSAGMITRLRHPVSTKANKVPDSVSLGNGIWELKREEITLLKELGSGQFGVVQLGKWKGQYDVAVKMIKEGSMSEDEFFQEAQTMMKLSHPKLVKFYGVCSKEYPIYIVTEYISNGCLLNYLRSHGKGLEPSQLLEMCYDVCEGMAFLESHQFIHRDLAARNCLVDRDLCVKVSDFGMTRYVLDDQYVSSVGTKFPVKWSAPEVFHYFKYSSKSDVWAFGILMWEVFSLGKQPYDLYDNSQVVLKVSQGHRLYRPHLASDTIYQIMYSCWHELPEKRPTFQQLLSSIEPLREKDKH
Endpoint: inhibition (%)

>>> value_observed("COc1cc2c(cc1Nc1nc(Nc3ccsc3C(N)=O)c3cc[nH]c3n1)N(C(=O)CN(C)C)CCC2")
1.32
>>> value_observed("COc1cccc(COc2cc(-n3cnc4ccccc43)sc2C(N)=O)c1")
-1.24
>>> value_observed("COc1cccc(-n2ncc3c(N/N=C/c4ccncc4)ncnc32)c1")
46.6
>>> value_observed("CCn1c(-c2nonc2N)nc2c(C#CC(C)(C)O)nc(O[C@@H](CN)c3ccccc3)cc21")
-1.16
>>> value_observed("NS(=O)(=O)c1ccc(N/C=C2\\C(=O)Nc3ccc4ncsc4c32)cc1")
6.44
>>> value_observed("CCn1c(-c2nonc2N)nc2c(C#CCN)ncc(OCCCN)c21")
-3

----------
target: Tyrosine-protein kinase Lyn (Homo sapiens); conditions: at 1 µM;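 note: mean percent inhibition of the LYN A splice variant of the kinase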
Description: GSK_PKIS: LYN A (splice variant) mean inhibition at 1 uM [Nanosyn]
Below, each entry is listed with its recorded inhibition.
Endpoint: inhibition (%)

>>> value_observed("CCn1c(-c2nonc2N)nc2c(C#CC(C)(C)O)ncc(OC[C@@H]3CCCN3)c21")
1.33
>>> value_observed("COc1cccc(COc2cc(-n3cnc4ccccc43)sc2C(N)=O)c1")
-1.31
>>> value_observed("COc1cc2c(cc1Nc1nc(Nc3ccsc3C(N)=O)c3cc[nH]c3n1)N(C(=O)CN(C)C)CCC2")
5.94
>>> value_observed("NC(=O)c1sc(-n2cnc3cc(C(F)(F)F)ccc32)cc1OCc1ccccc1Br")
4.62
>>> value_observed("CCn1c(-c2nonc2N)nc2c(C#CC(C)(C)O)nc(O[C@@H](CN)c3ccccc3)cc21")
22.1
>>> value_observed("CCn1c(-c2nonc2N)nc2c(C#CCN)ncc(OCCCN)c21")
2.24
>>> value_observed("NS(=O)(=O)c1ccc(N/C=C2\\C(=O)Nc3ccc4ncsc4c32)cc1")
28.3

----------
target: Vascular endothelial growth factor receptor 3 (Homo sapiens); details: at 1 µM
Endpoint: inhibition (%)

>>> value_observed("CCn1c(-c2nonc2N)nc2c(C#CC(C)(C)O)ncc(OC[C@@H]3CCCN3)c21")
33.9
>>> value_observed("Cc1cc(-c2ccco2)cc(C)c1/C=C/c1cncc(-c2nn[nH]n2)c1")
2.25
>>> value_observed("CCn1c(-c2nonc2N)nc2c(C#CC(C)(C)O)nc(O[C@@H](CN)c3ccccc3)cc21")
93.8
>>> value_observed("NS(=O)(=O)c1ccc(N/C=C2\\C(=O)Nc3ccc4ncsc4c32)cc1")
93.1
>>> value_observed("COc1cccc(COc2cc(-n3cnc4ccccc43)sc2C(N)=O)c1")
4.75
>>> value_observed("Nc1nonc1-c1nc2cnccc2n1C1CCCCC1")
16.7
>>> value_observed("NS(=O)(=O)c1ccc(-c2ccc3c(NC(=O)C4CC4)n[nH]c3c2)cc1")
1.51

----------
target: Serine/threonine-protein kinase 26 (Homo sapiens); settings: at 1 µM;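 note: mean inhibition of MST4 kinase activity, reported from the GSK PKIS inhibitor-set screening panel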
Each entry below carries its reported inhibition.
Endpoint: inhibition (%)

>>> value_observed("CCn1c(-c2nonc2N)nc2c(C#CC(C)(C)O)ncc(OC[C@@H]3CCCN3)c21")
-0.64
>>> value_observed("CCn1c(-c2nonc2N)nc2c(C#CC(C)(C)O)ncc(OCC3CCNCC3)c21")
3.31
>>> value_observed("COc1cc(C=NNc2ncnc3c2cnn3Cc2ccccc2)ccc1O")
2.28
>>> value_observed("CCn1c(-c2nonc2N)nc2c(C#CC(C)(C)O)nc(O[C@@H](CN)c3ccccc3)cc21")
10.8
>>> value_observed("NS(=O)(=O)c1ccc(N/C=C2\\C(=O)Nc3ccc4ncsc4c32)cc1")
74.5

----------
target: Tyrosine-protein kinase Blk (Homo sapiens) (UniProt P51451); details: at 1 µM;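 note: mean percent inhibition of BLK kinase activity, from GSK PKIS kinase inhibitor set profiling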
Sequence (P51451 2-505 limits assumed): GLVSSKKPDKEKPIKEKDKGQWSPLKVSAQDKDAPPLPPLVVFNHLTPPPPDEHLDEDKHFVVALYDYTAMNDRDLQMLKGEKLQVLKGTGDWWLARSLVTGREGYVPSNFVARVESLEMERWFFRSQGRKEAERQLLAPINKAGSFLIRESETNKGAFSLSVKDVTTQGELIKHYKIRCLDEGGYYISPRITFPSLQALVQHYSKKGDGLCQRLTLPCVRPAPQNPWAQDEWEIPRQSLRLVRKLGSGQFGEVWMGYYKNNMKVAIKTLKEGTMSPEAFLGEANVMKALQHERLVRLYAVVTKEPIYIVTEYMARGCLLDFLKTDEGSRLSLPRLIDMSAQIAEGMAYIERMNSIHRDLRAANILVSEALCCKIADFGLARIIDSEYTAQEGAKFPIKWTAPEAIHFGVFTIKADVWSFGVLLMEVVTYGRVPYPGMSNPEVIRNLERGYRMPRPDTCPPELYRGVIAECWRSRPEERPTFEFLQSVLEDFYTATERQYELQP
Endpoint: inhibition

>>> value_observed("NS(=O)(=O)c1ccc(N/C=C2\\C(=O)Nc3ccc4ncsc4c32)cc1")
"36.7%"
>>> value_observed("NC(=O)c1sc(-n2cnc3cc(C(F)(F)F)ccc32)cc1OCc1ccccc1Br")
"2.39%"
>>> value_observed("COc1cccc(-n2ncc3c(N/N=C/c4ccncc4)ncnc32)c1")
"63.6%"
>>> value_observed("Nc1nonc1-c1nc2cnccc2n1C1CCCCC1")
"0.24%"
>>> value_observed("NS(=O)(=O)c1ccc(-c2ccc3c(NC(=O)C4CC4)n[nH]c3c2)cc1")
"6.01%"
>>> value_observed("COc1cccc(COc2cc(-n3cnc4ccccc43)sc2C(N)=O)c1")
"-1.09%"
>>> value_observed("COc1cc2c(cc1Nc1nc(Nc3ccsc3C(N)=O)c3cc[nH]c3n1)N(C(=O)CN(C)C)CCC2")
"10.6%"
>>> value_observed("CCn1c(-c2nonc2N)nc2c(C#CC(C)(C)O)ncc(OC[C@@H]3CCCN3)c21")
"1.76%"
>>> value_observed("Cc1cc(-c2ccco2)cc(C)c1/C=C/c1cncc(-c2nn[nH]n2)c1")
"9%"
>>> value_observed("Fc1ccc(-c2ncn(C3CCNCC3)c2-c2ccnc(Oc3ccccc3)n2)cc1")
"-0.29%"
>>> value_observed("COc1cc(C=NNc2ncnc3c2cnn3Cc2ccccc2)ccc1O")
"23.8%"

----------
molecular target: Calcium/calmodulin-dependent protein kinase type II subunit alpha (Homo sapiens); conditions: at 0.1 µM;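 note: reported values are averages (mean inhibition of CAMK2A)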
# inhibition values compiled below
Endpoint: inhibition (%)

>>> value_observed("COc1cccc(COc2cc(-n3cnc4ccccc43)sc2C(N)=O)c1")
0.37
>>> value_observed("NS(=O)(=O)c1ccc(N/C=C2\\C(=O)Nc3ccc4ncsc4c32)cc1")
2.56
>>> value_observed("Nc1nonc1-c1nc2cnccc2n1C1CCCCC1")
-2.67
>>> value_observed("NS(=O)(=O)c1ccc(-c2ccc3c(NC(=O)C4CC4)n[nH]c3c2)cc1")
3.17
>>> value_observed("CCn1c(-c2nonc2N)nc2c(C#CC(C)(C)O)ncc(OC[C@@H]3CCCN3)c21")
1.28
>>> value_observed("CCn1c(-c2nonc2N)nc2c(C#CC(C)(C)O)ncc(OCC3CCNCC3)c21")
3.5
>>> value_observed("CCn1c(-c2nonc2N)nc2c(C#CCN)ncc(OCCCN)c21")
-2.48
>>> value_observed("COc1cccc(-n2ncc3c(N/N=C/c4ccncc4)ncnc32)c1")
4.53

----------
Reported inhibition values for the following compounds.
target: Muscle, skeletal receptor tyrosine-protein kinase (Homo sapiens) (UniProt O15146); conditions: at 0.1 µM;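 note: values are mean inhibition of MuSK from the GSK PKIS kinase screening panel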
Sequence (O15146 whole entry): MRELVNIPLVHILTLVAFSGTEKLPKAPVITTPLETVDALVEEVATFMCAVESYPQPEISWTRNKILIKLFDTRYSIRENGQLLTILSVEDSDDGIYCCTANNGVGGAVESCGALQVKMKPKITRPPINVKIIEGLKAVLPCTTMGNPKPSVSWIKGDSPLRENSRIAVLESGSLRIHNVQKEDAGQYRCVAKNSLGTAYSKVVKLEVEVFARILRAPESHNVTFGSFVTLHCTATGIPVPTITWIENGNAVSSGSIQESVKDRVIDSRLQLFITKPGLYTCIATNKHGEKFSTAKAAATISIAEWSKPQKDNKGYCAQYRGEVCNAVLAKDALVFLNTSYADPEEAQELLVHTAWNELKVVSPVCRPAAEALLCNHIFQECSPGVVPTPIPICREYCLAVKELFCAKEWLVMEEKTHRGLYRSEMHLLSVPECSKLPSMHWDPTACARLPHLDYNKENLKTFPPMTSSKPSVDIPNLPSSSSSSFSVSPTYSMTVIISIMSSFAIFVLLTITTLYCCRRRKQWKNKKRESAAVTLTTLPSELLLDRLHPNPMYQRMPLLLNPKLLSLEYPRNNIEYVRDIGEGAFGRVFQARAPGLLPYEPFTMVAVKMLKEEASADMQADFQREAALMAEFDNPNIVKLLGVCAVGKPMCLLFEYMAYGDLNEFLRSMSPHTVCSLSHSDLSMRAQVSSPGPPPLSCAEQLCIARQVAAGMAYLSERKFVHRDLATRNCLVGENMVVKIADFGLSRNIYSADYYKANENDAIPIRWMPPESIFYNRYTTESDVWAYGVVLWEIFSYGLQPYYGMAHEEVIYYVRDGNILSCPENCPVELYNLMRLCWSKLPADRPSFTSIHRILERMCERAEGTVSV
Endpoint: inhibition (%)

>>> value_observed("NS(=O)(=O)c1ccc(N/C=C2\\C(=O)Nc3ccc4ncsc4c32)cc1")
11
>>> value_observed("Nc1nonc1-c1nc2cnccc2n1C1CCCCC1")
-1.73
>>> value_observed("NS(=O)(=O)c1ccc(-c2ccc3c(NC(=O)C4CC4)n[nH]c3c2)cc1")
3.88
>>> value_observed("COc1cccc(COc2cc(-n3cnc4ccccc43)sc2C(N)=O)c1")
-1.3
>>> value_observed("COc1cccc(-n2ncc3c(N/N=C/c4ccncc4)ncnc32)c1")
11.1
>>> value_observed("CCn1c(-c2nonc2N)nc2c(C#CC(C)(C)O)ncc(OCC3CCNCC3)c21")
4.04
>>> value_observed("COc1cc(C=NNc2ncnc3c2cnn3Cc2ccccc2)ccc1O")
-1.07
>>> value_observed("CCn1c(-c2nonc2N)nc2c(C#CCN)ncc(OCCCN)c21")
2.41
>>> value_observed("Cc1cc(-c2ccco2)cc(C)c1/C=C/c1cncc(-c2nn[nH]n2)c1")
-1.44
>>> value_observed("Fc1ccc(-c2ncn(C3CCNCC3)c2-c2ccnc(Oc3ccccc3)n2)cc1")
1.71
>>> value_observed("CCn1c(-c2nonc2N)nc2c(C#CC(C)(C)O)ncc(OC[C@@H]3CCCN3)c21")
-2.15
>>> value_observed("NC(=O)c1sc(-n2cnc3cc(C(F)(F)F)ccc32)cc1OCc1ccccc1Br")
1.36
